test system: U138-MG (Glioblastoma) HIF++; assay: MTT cytotoxicity assay, U138-MG; format: cell-based; settings: Homo sapiens, 72 hour incubation
IC50 by entry:

>>> reported_result("COc1cc2c(cc1OCCCC(=O)Nc1cc(C(=O)Nc3ccc(-c4cc(C(=O)Nc5ccccc5)n(C)c4)cc3)n(C)c1)N=C[C@@H]1CCCCN1C2=O [Compound 22]")
"1.62 nM"

Notebook entry, U138-MG (Glioblastoma) HIF++ assay: IC50 of COc1cc2c(cc1OCCCC(=O)Nc1cc(C(=O)Nc3ccc(-c4cc(C)c(C(=O)Nc5ccccc5)s4)nc3)n(C)c1)N=C[C@@H]1CCCCN1C2=O [Compound 16] = ?
0.261 nM
